Catalogue of INTL % (30 min) readings, one per entry.
- target_under_test: Human FRA on IGROV-1 human ovarian adenocarcinoma cells (human, UniProt P15328 25-234)
- Sequence (P15328 25-234 limits assumed): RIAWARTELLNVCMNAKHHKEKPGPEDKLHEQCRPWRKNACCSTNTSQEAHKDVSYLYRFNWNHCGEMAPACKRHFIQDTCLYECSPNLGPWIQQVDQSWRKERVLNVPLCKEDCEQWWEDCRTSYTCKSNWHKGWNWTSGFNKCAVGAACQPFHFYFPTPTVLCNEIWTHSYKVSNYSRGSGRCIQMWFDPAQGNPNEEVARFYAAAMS
- procedure_summary: cell-based or functional assay
experimental_endpoint: INTL % (30 min) (%)

INSERT INTO measurements (binder, meas_value) VALUES
  ('MORAb-003 anti-FRA antibody, lot NB810-11 (galactose supplement; harvested 14 days after initiation of culture) (antibody, human IgG1, kappa, V domains shown, N-linked neutral glycans at Asn299 in SEQ ID NO: 5) VH: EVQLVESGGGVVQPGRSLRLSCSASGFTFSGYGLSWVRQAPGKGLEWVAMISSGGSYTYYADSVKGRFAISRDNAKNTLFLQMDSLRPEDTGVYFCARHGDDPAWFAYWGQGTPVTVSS VL: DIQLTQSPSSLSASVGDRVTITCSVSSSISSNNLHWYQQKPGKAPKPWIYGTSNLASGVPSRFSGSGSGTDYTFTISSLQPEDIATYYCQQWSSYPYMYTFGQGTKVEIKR', 6),
  ('MORAb-003 anti-FRA antibody, lot NB809-67 (low DO; harvested 13 days after initiation of culture) (antibody, human IgG1, kappa, V domains shown, N-linked neutral glycans at Asn299 in SEQ ID NO: 5) VH: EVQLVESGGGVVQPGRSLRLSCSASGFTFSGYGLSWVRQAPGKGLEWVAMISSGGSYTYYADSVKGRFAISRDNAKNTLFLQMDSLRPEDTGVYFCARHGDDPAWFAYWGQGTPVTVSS VL: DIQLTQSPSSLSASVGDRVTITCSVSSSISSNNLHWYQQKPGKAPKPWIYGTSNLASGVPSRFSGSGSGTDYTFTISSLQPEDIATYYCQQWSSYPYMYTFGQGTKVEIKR', 14),
  ('MORAb-003 anti-FRA antibody, lot NB859-25 (harvested 14 days after initiation of culture) (antibody, human IgG1, kappa, V domains shown, N-linked neutral glycans at Asn299 in SEQ ID NO: 5, also called Day 14 harvest; positive control (round 3)) VH: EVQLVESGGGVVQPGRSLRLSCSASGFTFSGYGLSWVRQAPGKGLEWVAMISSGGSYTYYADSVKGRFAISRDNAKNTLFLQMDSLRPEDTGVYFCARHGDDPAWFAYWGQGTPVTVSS VL: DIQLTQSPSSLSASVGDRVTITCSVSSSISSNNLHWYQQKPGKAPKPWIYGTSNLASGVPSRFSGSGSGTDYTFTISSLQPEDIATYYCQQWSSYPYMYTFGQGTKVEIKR', 20),
  ('MORAb-003 anti-FRA antibody, lot NB809-68 (high CO2; harvested 13 days after initiation of culture) (antibody, human IgG1, kappa, V domains shown, N-linked neutral glycans at Asn299 in SEQ ID NO: 5) VH: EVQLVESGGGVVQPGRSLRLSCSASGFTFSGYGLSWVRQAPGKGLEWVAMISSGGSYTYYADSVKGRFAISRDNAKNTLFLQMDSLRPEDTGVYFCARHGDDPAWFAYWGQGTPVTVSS VL: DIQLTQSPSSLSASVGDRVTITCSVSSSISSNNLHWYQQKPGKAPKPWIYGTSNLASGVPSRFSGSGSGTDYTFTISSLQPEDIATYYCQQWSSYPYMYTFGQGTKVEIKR', 14),
  ('MORAb-003 anti-FRA antibody, lot NB810-13 (high osmolarity; harvested 14 days after initiation of culture) (antibody, human IgG1, kappa, V domains shown, N-linked neutral glycans at Asn299 in SEQ ID NO: 5) VH: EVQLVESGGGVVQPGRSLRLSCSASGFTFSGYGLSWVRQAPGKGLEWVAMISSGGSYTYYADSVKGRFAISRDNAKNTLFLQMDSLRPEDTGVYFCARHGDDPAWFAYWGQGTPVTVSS VL: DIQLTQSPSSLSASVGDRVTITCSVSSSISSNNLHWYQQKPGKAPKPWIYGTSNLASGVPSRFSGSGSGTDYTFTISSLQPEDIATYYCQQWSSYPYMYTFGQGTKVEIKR', 17);

Provenance of the data: patent US20120164137A1
